Kindly state pIC50 for each of the entries shown.
EXPERIMENTAL_SYSTEM: human TRPC6 (Homo sapiens)
Sequence (Q9Y210 whole entry): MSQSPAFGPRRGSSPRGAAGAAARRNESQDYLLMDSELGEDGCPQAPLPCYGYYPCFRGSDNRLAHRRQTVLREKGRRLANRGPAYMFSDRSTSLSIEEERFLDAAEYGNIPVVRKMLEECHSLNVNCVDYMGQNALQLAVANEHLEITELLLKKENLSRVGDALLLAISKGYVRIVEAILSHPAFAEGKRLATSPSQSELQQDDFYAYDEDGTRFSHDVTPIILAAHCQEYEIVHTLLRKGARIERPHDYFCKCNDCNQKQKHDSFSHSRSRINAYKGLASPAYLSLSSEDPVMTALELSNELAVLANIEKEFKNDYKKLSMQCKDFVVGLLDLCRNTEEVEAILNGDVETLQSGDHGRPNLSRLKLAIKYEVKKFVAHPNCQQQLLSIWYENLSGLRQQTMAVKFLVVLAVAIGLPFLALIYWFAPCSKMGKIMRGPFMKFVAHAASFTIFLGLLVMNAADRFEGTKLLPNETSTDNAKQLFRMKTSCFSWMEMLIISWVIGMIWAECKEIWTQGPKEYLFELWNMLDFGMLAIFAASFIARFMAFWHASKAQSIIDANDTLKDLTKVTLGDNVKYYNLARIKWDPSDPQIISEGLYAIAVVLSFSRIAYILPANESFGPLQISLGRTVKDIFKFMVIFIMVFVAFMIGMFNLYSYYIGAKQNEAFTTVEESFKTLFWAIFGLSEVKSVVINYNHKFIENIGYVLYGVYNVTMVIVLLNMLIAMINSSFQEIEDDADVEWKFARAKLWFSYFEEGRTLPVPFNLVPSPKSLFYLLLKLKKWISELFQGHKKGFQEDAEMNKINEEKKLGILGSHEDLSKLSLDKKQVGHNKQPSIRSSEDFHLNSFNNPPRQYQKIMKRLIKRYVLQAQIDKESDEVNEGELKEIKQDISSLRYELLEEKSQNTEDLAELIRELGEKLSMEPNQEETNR
TEST_DESCRIPTION: TRPC6 calcium flux assay (FLIPR, OAG-stimulated calcium influx)
CONDITION_DESCRIPTION: HEK293 cells stably transfected with human TRPC6, read-out: hTRPC6 Potency
Where a name gives a salt, the structure may show the parent alone.
Scale for pIC50: -log10 of concentration given in mol/L; no unit attached.

Form field pIC50, entry CC(c1cccc(C#N)c1)n1c(N2CC[C@@H](F)[C@H](N)C2)nc2cc(F)c(F)cc21 (mixture of isomers) [Example 302] : 6.99

Form field pIC50, entry N#Cc1ccc(Cn2c(N3CC[C@H](O)[C@H](N)C3)nc3cc(F)ccc32)nc1 [Example 312] : 5.54

Form field pIC50, entry N#Cc1ccc(Cn2c(N3CC[C@@H]4CCN[C@@H]4C3)nc3ccccc32)nc1 [Example 24] : 6.84

Form field pIC50, entry N#Cc1ccc(Cn2c(N3C[C@H]4CC[C@H](N)[C@H]4C3)nc3ccccc32)nc1 [Example 78, hydrochloride] : 7.15

Form field pIC50, entry N[C@@H]1CN(c2nc3cc(F)c(F)cc3n2Cc2cccc(Cl)c2)CC[C@H]1F [Example 367] : 6.45

Form field pIC50, entry Cc1nc(-c2ccccc2)sc1Cn1c(N2CC[C@@H](F)[C@H](N)C2)nc2cc(F)ccc21 [Example 593] : 5.67

Form field pIC50, entry CN[C@@H]1CN(c2nc3cc(F)ccc3n2CC(=O)N(C)CC(F)(F)F)CC[C@H]1F [Example 479] : 5.92

Form field pIC50, entry CC1CCN(C(=O)Cn2c(N3CC[C@@H](F)[C@H](N)C3)nc3cc(F)c(F)cc32)CC1 [Example 516] : 6.71

Form field pIC50, entry CN(CCC(F)(F)F)C(=O)Cn1c(N2CC[C@@H](F)[C@H](N)C2)nc2cc(F)c(F)cc21 [Example 622] : 7.10

Form field pIC50, entry N#Cc1ccc(Cn2c(N3CC[C@@H](F)[C@H](N)C3)nc3ccc(C(F)(F)F)cc32)nc1 [Example 14] : 9.42

Form field pIC50, entry N#Cc1ccc(Cn2c(N3CC[C@@H](F)[C@H](N)C3)nc3cc(C(F)(F)F)ccc32)nc1 [Example 15] : 8.36

Form field pIC50, entry CO[C@H]1CCN(c2nc3cc(F)ccc3n2Cc2ncc(Cl)cn2)C[C@H]1N [Example 477] : 5.99

Form field pIC50, entry N#Cc1ccc(Cn2c(N3CC[C@@H](F)[C@H](N)C3)nc3ncc(Cl)cc32)nc1 [Example 93] : 8.16

Form field pIC50, entry N[C@@H]1CN(c2nc3cc(F)c(F)cc3n2CC(=O)N2CCC3CCCCC3C2)CC[C@H]1F (mixture of isomers) [Example 523] : 6.01

Form field pIC50, entry COc1cc(C#N)ccc1Cn1c(N2CCC[C@@H](N)C2)nc2ccccc21 [Example 396] : 4.74

Form field pIC50, entry N#Cc1ccc(Cn2c(N3CCC(F)(F)[C@H](N)C3)nc3c(Cl)cccc32)cc1 [Example 407] : 8.23

Form field pIC50, entry N[C@@H]1CN(c2nc3cc(F)c(F)cc3n2CC(=O)N2Cc3cccnc3C2)CC[C@H]1F [Example 632] : 6.64

Form field pIC50, entry N#Cc1ccc(Cn2c(N3CCC[C@H](N)C3)nc3cc(F)cc(F)c32)nc1 [Example 62] : 7.22

Form field pIC50, entry N#Cc1ccc(Cn2c(N3CCC(F)(F)[C@H](N)C3)nc3cc(Cl)ccc32)nc1 [Example 13] : 8.16

Form field pIC50, entry N[C@@H]1CCCN(c2nc3ccccc3n2Cc2ccc(F)cc2)C1 [Example 387] : 5.27
